- Experimental system: CCK-B receptors (Rattus norvegicus, UniProt P30553)
- Construct: the whole brain was immediately excised from each of the rats and homogenized; from tissue; host or cells: SD rat whole-brain membrane preparation
- Sequence (P30553 whole entry): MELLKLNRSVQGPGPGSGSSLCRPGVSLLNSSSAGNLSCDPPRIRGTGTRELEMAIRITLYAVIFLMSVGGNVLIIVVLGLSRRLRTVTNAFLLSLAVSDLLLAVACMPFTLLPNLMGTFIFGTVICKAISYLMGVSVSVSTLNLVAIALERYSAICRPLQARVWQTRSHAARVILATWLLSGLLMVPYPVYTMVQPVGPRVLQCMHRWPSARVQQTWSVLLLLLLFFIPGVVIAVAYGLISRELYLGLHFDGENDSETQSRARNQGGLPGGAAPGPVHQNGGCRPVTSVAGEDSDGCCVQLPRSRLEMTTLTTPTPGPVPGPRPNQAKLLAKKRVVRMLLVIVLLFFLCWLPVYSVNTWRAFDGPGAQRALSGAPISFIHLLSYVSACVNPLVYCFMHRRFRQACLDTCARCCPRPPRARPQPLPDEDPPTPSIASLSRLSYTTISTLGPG
- Procedure details: Measurement of binding affinity for CCK-B receptors ([125I]BH-CCK-8 displacement, brain membrane preparation)
- Parameters: species or system SD rats
pIC50: −log10 of the molar value.
# pIC50 per entry
Reported endpoint: pIC50

1. CCC(C)(C)C(=O)CN1C(=O)C(NC(=O)Nc2cccc(C)c2)N=C(c2ccccc2)c2ccccc21 (racemic) [Example 36]; 9.24
2. CC(C)(C)C(=O)CN1C(=O)C(NC(=O)Nc2cccc(C(=O)O)c2)N=C(c2ccccn2)c2ccccc21 (racemic) [Example 39]; 10.00
3. CCC(C)(C)C(=O)CN1C(=O)C(NC(=O)Nc2cccc(C(=O)O)c2)N=C(c2ccccc2)c2ccccc21 (racemic) [Example 37]; 8.96
4. CN(C)c1cccc(NC(=O)NC2N=C(c3ccccc3)c3ccccc3N(CC(=O)C(C)(C)C)C2=O)c1 (racemic) [Example 41]; 8.21
